Catalogue of EC50 values
- Test system: CIC-1 inhibited rat soleus muscles
- ASSAY PROTOCOL: Myotonia (tail AUC of force response) in 9AC-treated isolated rat soleus muscle
- PARTICULARS: Rattus norvegicus, 10 min, read-out: EC50 (reduction of AUC), rat soleus, 100 μM 9AC, 15 Hz 2 s every 10 min; two muscles per compound
PARAMETER: EC50

[
  {
    "COMPOUND": "NC(=O)c1nnn(Cc2ccccc2)c1N [Compound 1]",
    "EXPERIMENTAL TARGET": "CIC-1 inhibited rat soleus muscles",
    "VALUE MEASURED": "24.7 µM"
  },
  {
    "COMPOUND": "Cc1c(C(N)=O)nnn1Cc1ccccc1 [Compound 2]",
    "EXPERIMENTAL TARGET": "CIC-1 inhibited rat soleus muscles",
    "VALUE MEASURED": "19.1 µM"
  }
]
